Tested on: MCF7
assay-details: Cytotoxicity against human MCF7 cells by MTT assay
Assay type: functional, cell-based
Measured pIC50 of individual entries
// pIC50 here means minus log10 of the molar concentration (mol/L)

Query: Return reported pIC50; argument: COc1cc2c(cc1C)C(=O)C=C1C2=C(C2=Cc3c(cc(O)c4cc(C)c(O)cc34)C(C)(C)C2=O)C(=O)C1(C)C
Response: 4.90

---
Query: What value of pIC50 has been reported for the following molecule? COc1cc2c(cc1C)C(=O)C=C1C2=C(C2=C3C(=CC(=O)c4cc(C)c(OC)cc43)C(C)(C)C2=O)C(=O)C1(C)C
Response: 4.81

Query: Item COc1cc2c(cc1C)C(=O)C=C1C2=C(C2=Cc3c(cc(O)c4cc(C)c(OC)cc34)C(C)(C)C2=O)C(=O)C1(C)C has what recorded pIC50?
Response: 5.38

---

Tested on: Staphylococcus aureus
assay-details: Antibacterial activity against Staphylococcus aureus ATCC 25923 by two-fold dilution method
Assay type: functional
Let's look at some compounds and their measured MIC.
Supply the numeric figure in µg/mL, leaving out any unit text.

Query: // query MIC value for entry CN[C@H](CC(C)C)C(=O)N[C@H]1C(=O)N[C@@H](CC(N)=O)C(=O)N[C@H]2C(=O)N[C@H]3C(=O)N[C@H](C(=O)N[C@H](C(=O)O)c4cc(O)cc(O)c4-c4cc3ccc4O)[C@H](O)c3ccc(c(Cl)c3)Oc3cc2cc(c3O[C@@H]2O[C@H](CO)[C@@H](O)[C@H](O)[C@H]2O[C@H]2C[C@](C)(N)[C@H](O)[C@H](C)O2)Oc2ccc(cc2Cl)[C@H]1O.Cl [VANCOMYCIN HYDROCHLORIDE]
Response: 0.78

Next:
Query: Given the compound COc1cc2c(cc1C)C(=O)C=C1C2=C(C2=Cc3c(cc(O)c4cc(C)c(O)cc34)C(C)(C)C2=O)C(=O)C1(C)C , what is its reported MIC?
Response: 6.25

Query: Which measured MIC value corresponds to Cc1cc2ccc3c(c2cc1O)C=C(O)C(=O)C3(C)C ?
Response: 25

Query: Quick check: MIC of COc1cc2c3c(cc(O)c2cc1C)C(C)(C)C(=O)C=C3 ?
Response: 25

Query: # get_value(readout='MIC', item= Cc1cc2c(cc1O)C1=C(C3=Cc4c(cc(O)c5cc(C)c(O)cc45)C(C)(C)C3=O)C(=O)C(C)(C)C1=CC2=O )
Response: 25

---

System: HL-60
assay-details: Cytotoxicity against human HL60 cells by MTT assay
Type: functional, cell-based
result-type: IC50 (µM)
Report the value in µM with no unit label.

Query: Query (compound): COc1cc2c(cc1C)C(=O)C=C1C2=C(C2=C3C(=CC(=O)c4cc(C)c(OC)cc43)C(C)(C)C2=O)C(=O)C1(C)C [TRIGOHOWILOL G] ; field requested: IC50
Response: 17.8

Query: For COc1cc2c3c(cc(O)c2cc1C)C(C)(C)C(=O)C(C1=C2C(=CC(=O)c4cc(C)c(O)cc42)C(C)(C)C1=O)=C3 [TRIGOHOWILOL D] , what is its reported IC50?
Response: 24.3

Query: GET /values?readout=IC50&item= COc1cc2c(cc1C)C(=O)C=C1C2=C(C2=Cc3c(cc(O)c4cc(C)c(OC)cc34)C(C)(C)C2=O)C(=O)C1(C)C [TRIGOHOWILOL F]
Response: 2.49

Query: Look at this compound and give its reported IC50. COc1cc2c(cc1C)C(=O)C=C1C2=C(C2=Cc3c(cc(O)c4cc(C)c(O)cc34)C(C)(C)C2=O)C(=O)C1(C)C [TRIGOHOWILOL E]
Response: 2.61

Query: Field request: IC50 | item: COc1cc2c3c(cc(O)c2cc1C)C(C)(C)C(=O)C=C3 [TRIGOHOWILOL A]
Response: 24.8
